- Test system: K4 kissing-loop RNA reporter
- testMethodNotes: apparent KD of K4 kissing-loop reporter; higher = weaker reporter binding
- measurementConditions: Eterna round: R107; input ligand: tryptophan 2.4 mM
propertyName: apparent KD of K4 kissing-loop reporter (µM)
Supply the numeric figure in µM, leaving out any unit text.

Consider the reported apparent KD of K4 kissing-loop reporter for these sequences:
sequencerecord="GACAUCUAUCGCCGAUAGUGUUUAUCUUGGGAGGAUAUGUCAGCGGACAGAAGGCCCAGUGAUGUUGGGUAGAUGACCGUUGCUU [Edbiza]" observed=0.12
sequencerecord="AAUACGUUCACGGCCGCCACUGAAUAAUUGGUAAGUAGUGAUGUUACUUUACAUAUCUUAUUUAACAGGACCGGGUGAUCGUUUA [JR_Nu_ExcTryptoB_Sub028]" observed=0.142
sequencerecord="AAAAUAAUCCAGUGAUGUUGGUAUCCAGAUACCAGCCACGAAAGUGGCCCUUGGCAGCUGUAGGACGUACAAAUAAGUACGUCCA [#OpenEnded 7 #StaticStem #K4Early]" observed=0.444
sequencerecord="GUCUCAAAAGAGGCAAGCACUCACGAGGACAAGGAUAUCAUAUCAAUGAGAAGGUGUCCUCGUCCUCAGUGAUGUUGAGGAGUGC [Omei KL FMN A SS E v4]" observed=0.257

(Q) Form field: apparent KD of K4 kissing-loop reporter recorded for UAGCGGGCGAUUCGACGUGCGUCCAGUCAUCGAGGACCGGUACGGCCGCCACUCGCCGGAGUGAUGUUCCGGUACGUCAUAUAAU [theeternabot_sameState_KL_Trp_A_35] with K4 kissing-loop RNA reporter (enter value)
(A) 0.197

(Q) Please state recorded apparent KD of K4 kissing-loop reporter (tested on K4 kissing-loop RNA reporter) of GUUUCAGUGAUGUUGGAAGGCGAGCGGGAUACCAGCCAAGACUCAGGCCCUUGGCAGCCCACAUAUCCCACGUAGAUAGUAGCUC [Same State - Theophylline A (Freestyle 14)]
(A) 0.137

* * *

- System: K4 kissing-loop RNA reporter
- testMethodNotes: apparent KD of K4 kissing-loop reporter; higher = weaker reporter binding
- measurementConditions: Eterna round: R107; input ligand: arginine 13.2 mM
propertyName: apparent KD of K4 kissing-loop reporter (nM)
Unit nM implied. Number only.

sequencerecord="GAUUUAGAGGCGGCCGCCACUAGUGAUGUUAGUGAUGUUUGAUACUGAAUAUAUCGGCGUGUAGAUAGGACCGGGCCAGAUGGAG [zwqqmullin]" targetundertest="K4 kissing-loop RNA reporter" propertyname="apparent KD of K4 kissing-loop reporter" observed=179
sequencerecord="AGACUACCACACUGUCAAUAGACAGUGGACUAGGAUAUGCUGAUAAGCAGAAGGAGUGAUGUUCCUAGGUAGUCAAUAAAAUAAU [FmnAX 13 G28]" targetundertest="K4 kissing-loop RNA reporter" propertyname="apparent KD of K4 kissing-loop reporter" observed=301
sequencerecord="GGAUAGGACAAAGGAUAUGGUAGUGAUGUUACCAAACUGGUUAAACAUGUCAGAAAACUGGCAUGACCAGAAGGUUGUCCUAUCG [FmnBX 27 A11+U75]" targetundertest="K4 kissing-loop RNA reporter" propertyname="apparent KD of K4 kissing-loop reporter" observed=62.8
sequencerecord="CGCGCGCGUUGAGAGGCGCGCGCGAAUGAUACCAGUAUAUAAGAAUACCCUUGGCAGCAUAAGAAAGAUAUAGUGAUGUUGUAUA [SSTheophA.E]" targetundertest="K4 kissing-loop RNA reporter" propertyname="apparent KD of K4 kissing-loop reporter" observed=264
sequencerecord="AGUGCACUGUCAGGAUAUAUACAGUGAUGUUGUGUAUGUCAGCAAGUCAAAGACUUGCUAUUUUGUGUAGAAGGGACUGUGUACA [whbob_Ex_FMNB__2th221]" targetundertest="K4 kissing-loop RNA reporter" propertyname="apparent KD of K4 kissing-loop reporter" observed=156

Here's the next entry for you.
(Q) Tell me the measured apparent KD of K4 kissing-loop reporter of AAGCAGUCACUCUAAGCCAUCGAAGAUGGACGAGGACCGGUACGGCCGCCACUCGGAGUGAUGUUCCGAAGACUGCAAAAUAAAA , please.
(A) 402

* * *

- System: K4 kissing-loop RNA reporter
- testMethodNotes: apparent KD of K4 kissing-loop reporter; higher = weaker reporter binding
- measurementConditions: Eterna round: R107; input ligand: FMN 200 uM
propertyName: apparent KD of K4 kissing-loop reporter
# output: numeric value plus its unit

Observe how each entry below is paired with its result.
sequencerecord="GGUAUCCAGUACCAUUGCGUUAAAACAGAAGGAGCGAGUAUGGACUCAGGUAGGUCGCUGUUUAUAGUCGAGUGAUGUUCGAAUC [Same State Arginine A GF 15]" propertyname="apparent KD of K4 kissing-loop reporter" observed="237 nM"
sequencerecord="UAUUAAUAUUUUUCAGUGAUGUUAAUUGAUACCAGCCCGAAACCGGGCCCUUGGCAGCGAGUGAUGUUGGUUGUCAGCAUAAAUA [KL-XTheo-A13]" propertyname="apparent KD of K4 kissing-loop reporter" observed="860 nM"
sequencerecord="AUUUUUUUGUCAGGAUAUUAGUGUGCGUUUGGUUUGUUAGUGAUGUUGAUAUUUUGUUUAUGUAUUUAAGAAGGGAUUUAGCGGU [aaeatemullin]" propertyname="apparent KD of K4 kissing-loop reporter" observed="534 nM"

(Q) Requested read-out: apparent KD of K4 kissing-loop reporter. Entry: AAAUAGAUCAGUCAACCAGUGAUGUUGGAAGGAGCGUGCGAAAGCACAGGUAGGUCGCCAGAAUAAAAGUGGCUGAUCAAAAUAA
(A) 357 nM

(Q) Look up apparent KD of K4 kissing-loop reporter: GGUACAGCGGAAGGAUAUCUGUCAUGGACGAUCGUAGCUUGAGCUCCCUGAGUGAUGUUUAGGAUGAGAGAAGGUCCACUCGUAU [theeternabot_exclusion_KL_FMN_B_2]
(A) 673 nM

(Q) Would you mind telling me what apparent KD of K4 kissing-loop reporter value was observed for GGUGUUGUUUGUGCCGUUUUCCUCGUUCCUCGAGGACCGGUACGGCCGCCACUCGAGUGAUGUUUGGGUAGCGAUCCCUGUUAGU [Bdazzled - #9 Exc. Tryptophan A] ?
(A) 868 nM

(Q) Field request: apparent KD of K4 kissing-loop reporter | item: UAGCGGGCGAUUCGACGUGCGUCCAGUCAUCGAGGACCGGUACGGCCGCCACUCGCCGGAGUGAUGUUCCGGUACGUCAUAUAAU [theeternabot_sameState_KL_Trp_A_35]
(A) 406 nM

(Q) Form field: reported apparent KD of K4 kissing-loop reporter of GGCCGGAAGGCGAGCGCUCCCACUCCGGAAGGAGCGCCCGGAAGGGCAGGUAGGUCGCCGGAGUGAUGUUCCGGUGGAGGGCUCG [#2 Exclusion - Arginine A Attempt #19 (Inspired by Omei)]
(A) 141 nM

* * *

- Tested on: K4 kissing-loop RNA reporter;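 note: bound reporter read as fluorescence of individual clusters on recovered sequencing chips by microscopy, with normalized cluster intensities fitted with a binding model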
- testMethodNotes: apparent KD of K4 kissing-loop reporter; higher = weaker reporter binding
- measurementConditions: Eterna round: R107; input ligand: FMN 200 uM
propertyName: apparent KD of K4 kissing-loop reporter (nM)
Numbers only here, please. The scale is nM.

Example sequences with recorded apparent KD of K4 kissing-loop reporter:
sequencerecord="UGUCAUGGAAACAUGAACGUUAAAAUAAAUCGAGGACCGGUACGGCCGCCACUCGUAUAGCGGUCAGUGAUGUUGACUGUAAUAA [KL-SSTryp-A form2 sub10]" targetundertest="K4 kissing-loop RNA reporter" propertyname="apparent KD of K4 kissing-loop reporter" units=nM observed=101
sequencerecord="GUGACCUACUCAGGAUAUCCGCAGUGAUGUUGCGGUUGGCCUGAGCGACAUGAAAAUCUUACUACAGGAGAAGGGAGAGGGUUAC [Leanteti]" targetundertest="K4 kissing-loop RNA reporter" propertyname="apparent KD of K4 kissing-loop reporter" units=nM observed=113

Query sequence follows.
(Q) Query (sequence): GCCGUAGAUUGAAGGAGCGCCUUCUUACCAAGAGUGAUGUUCUUUGGUACCAUGUUCAGCAGGCAGGUAGGUCGCAAUCUACGGC ; field requested: apparent KD of K4 kissing-loop reporter
(A) 195

* * *

- System: MS2 coat protein
- testMethodNotes: apparent KD of MS2 coat protein; designed switch direction (-1 OFF switch, 1 ON switch): 1; higher = weaker reporter binding
- measurementConditions: Eterna round: R95; input ligand: none
Range-based classes on measured apparent KD of MS2 coat protein: low value (below 30 nM), medium value (30 nM to below 300 nM), high value (300 nM or more)

Take a look at these entries with their results.
sequencerecord="CUCAAAACAAGUUGCAGUGUUCGUCUUUAACAUGAGGAUCACCCAUGUAAUAACCCAGUGGAAGCGCUCGGGCCACC [Ineson] (puzzle: Sensor for hsa-mir-208a)" targetundertest="MS2 coat protein" qualitativelabel="low value"
sequencerecord="CACAAUCUAUCUGAGGAUAUCAUGAAAAAAACAUGAGGAUCACCCAUGUGCAGGAAAACUGCAUAUGAGAAGGCAGAUAGAUUGC [salish99_SS2_r3_013] (puzzle: Same State 2)" targetundertest="MS2 coat protein" qualitativelabel="high value"
sequencerecord="GGUCCAGCCUGAGCUGGACAAAAGCAUGUACAUGAGGAUCACCCAUGUUCAUGUACAAGCUUUUUGCUCGUCUUAGA [salish99_208a_r3_068] (puzzle: Sensor for hsa-mir-208a)" targetundertest="MS2 coat protein" qualitativelabel="high value"

(Q) Given UGCUAUUGUAUAUUGGUGCAAGCUUUUUGACAUGAGGAUCACCCAUGUACUCGUCAUUAGCGCAGUCCGUAGACUGC (puzzle: Sensor for hsa-mir-208a) , name the class its apparent KD of MS2 coat protein places it in.
(A) medium value

(Q) Each sequence maps to one class by apparent KD of MS2 coat protein. Which class for UAGACAAGCUUUAUGUUCUUCCUUUUCCUACAUGAGGAUCACCCAUGUAGUCUGUCGAUUGUGAGUGUAGUUGAGAU [JR_SHM208A_Sub025] (puzzle: Sensor for hsa-mir-208a) ?
(A) low value

(Q) Which of the defined bands does the recorded apparent KD of MS2 coat protein of AGUCCUGAAUAAAUUAAACAGAGACAUGUACAUGAGGAUCACCCAUGUCAUGUGCAAGUUUUAUGCUCGUCAUAUAA [Sensorship 18 - Jieux - Sensor for hsa-mir-208a] (puzzle: Sensor for hsa-mir-208a) sit within?
(A) low value

(Q) Bin this entry: CGUCCGGCCUGAGCUGGACGGAUGCAUGUACAUGAGGAUCACCCAUGUUCAUGUGCAGGCUUUUUGCUCGUCUUGUG [salish99_mir208a_modof_jandersonlee_002] (puzzle: Sensor for hsa-mir-208a)
(A) low value

(Q) Exercise: read the entry AUAUUACAUGAGGAUCACCCAUGUCUCUAAAGUCGAGGAUAUGGGCAGGUUAUAUCCGAACCAGAAGGCGAAUUAU [SS1 Teenbexe 9] (puzzle: Same State 1) and state which class it falls under.
(A) high value

(Q) // bin(item) where item = UUAAGCAGCGGGCAGGAUAUGUAUUAAAAUACAUGAGGAUCACCCAUGUGCAGGUGUAACACCUGACAGAAGGGCCAAUCGGUGC [Soteed - 9] (puzzle: Same State 2)
(A) high value

(Q) Any idea which band GAGGGAUGAGCGUAGGAUAUAGGAGAAGUGACAUGAGGAUCACCCAUGUAGGAGGAGGGAUGAGACUAGAAGGACGAGGUAGGAG [JR_SS2_Sub061] (puzzle: Same State 2) is in?
(A) medium value
